assay: Volume of distribution in rat; assay type: ADME, organism-based; details: in vivo
property-label: Vd (L/kg)

[1] O=C([C@H]1c2ccccc2CN1C(=O)c1cc(Cl)c(O)cc1O)N1CCCC1
[2] CCNC(=O)[C@H]1c2ccccc2CN1C(=O)c1cc(Cl)c(O)cc1O
### Prompt Compare the recorded Vd of 1 and 2 ; state which is larger. Your answer should be the label of the entry you select.
### Response 1

----------
assay: Half life in rat; type: ADME, organism-based; settings: in vivo
property-label: half-life (h)

[1] CCNC(=O)[C@H]1c2ccccc2CN1C(=O)c1cc(Cl)c(O)cc1O
[2] O=C([C@H]1c2ccccc2CN1C(=O)c1cc(Cl)c(O)cc1O)N1CCCC1
### Prompt Kindly identify the item with the lower half-life figure among these two: 1 and 2 In your reply, give the label of the chosen option.
### Response 1

----------
A short record of IC50 observed with Heat shock protein HSP90 (Homo sapiens, UniProt P07900+P08238) follows.
property-label: IC50 (nM)

Known IC50 results, listed for orientation:
>>> df
                                   molecule                     target_or_test_system  property_label  units_symbol   val
0  O=C(NCc1ccccc1)C1c2ccccc2CN1C(=O)c1cc(Cl)c(O)cc1O (stereo not given)  Heat shock protein HSP90 (Homo sapiens, UniProt P07900+P08238)            IC50            nM   700
1  CNC(=O)C1c2ccccc2CN1C(=O)c1cc(Cl)c(O)cc1O (stereo not given)  Heat shock protein HSP90 (Homo sapiens, UniProt P07900+P08238)            IC50            nM  1700

[A] CCNC(=O)[C@H]1c2ccccc2CN1C(=O)c1cc(Cl)c(O)cc1O
[B] O=C([C@H]1c2ccccc2CN1C(=O)c1cc(Cl)c(O)cc1O)N1CCCC1
[C] C=CCNC(=O)C1c2ccccc2CN1C(=O)c1cc(Cl)c(O)cc1O (stereo not given)
### Prompt Arrange these 3 molecules in increasing order of IC50. I'd appreciate it if you listed the labels in the requested order.
### Response A, B, C

----------
assay: Clearance in rat; type: ADME, organism-based; conditions: in vivo
property-label: clearance (mL/min/kg)

                           smiles_structure  units_symbol   val
0  CCNC(=O)[C@H]1c2ccccc2CN1C(=O)c1cc(Cl)c(O)cc1O     mL/min/kg  23.3
1  O=C([C@H]1c2ccccc2CN1C(=O)c1cc(Cl)c(O)cc1O)N1CCCC1     mL/min/kg  23.3

----------
Lab note: IC50 readings collected with Heat shock protein HSP90 (Homo sapiens, UniProt P07900+P08238) for the following compounds.
property-label: IC50 (nM)

[a] CN(C)C(=O)C1c2ccccc2CN1C(=O)c1cc(Cl)c(O)cc1O (centres undefined)
[b] O=C(C1c2ccccc2CN1C(=O)c1cc(Cl)c(O)cc1O)N1CCCC1 (centres undefined)
[c] CCNC(=O)C1c2ccccc2CN1C(=O)c1cc(Cl)c(O)cc1O (centres undefined)
[d] Cc1ccccc1[C@H]1CCCN1C(=O)c1cc(Cl)c(O)cc1O
### Prompt Please rank these compounds by IC50 in descending order. // respond by listing labels in the order requested
### Response a, d, b, c
(a: 1500 nM, d: 1000 nM, b: 600 nM, c: 300 nM)
